Property: Avg kcat/KM; scope: individual proteins
- Target: T1, Abz-LAETGK(Dnp)-CONH2
- T1 chain: LAETGK
Non-standard residues stand in square brackets, D forms with d. No end group written: not given here. *: point of attachment. Dnp = O=[N+]([O-])c1ccc(*)c([N+](=O)[O-])c1; 2Abz = Nc1ccccc1C(=O)O
Property name: Avg kcat/KM

INSERT INTO assay_data (protein, recorded_result) VALUES
  ('eSrtA(2A-4) (protein) QAKPQIPKDKSKVAGYIEIPDADIKEPVYPGPATREQLNRGVSFHEENESLDDQNISIAGHTFIDRPNYQFTNLKAAKKGSMVYFKVGNETRKYKMTSIRNVRPTAVEILDEQKGKDKQLTLVTCDDYNEETGVWETRKIFVATEVK', 534),
  ('eSrtA(2A-3.5) (enzyme) QAKPQIPKDKSKVAGYIEIPDADIKEPVYPGPATREQLNRGVSFAEENESLDDQNISIAGHTFIDRPNYQFTNLKAAKKGSMVYFKVGNETRKYKMTSIRNVRPTAVEILDEQKGKDKQLTLFTCDDYNEETGVWETRKIFVATEVK', 180);
